The reported numbers originate from PubChem BioAssay (NCI).

system: MCF7 breast; experiment: NCI tumour cell line growth inhibition, 48 h
Record form. Attribute: TGI. Fill in for each entry.

Example molecules with recorded TGI:
molecule="CC(=O)N1C(c2[nH]c3ccccc3c2Cc2ccccc2)CCN1c1ccccc1 (centres undefined)" observed="> 10 µM"
molecule=CC(C)(C)OC(=O)N(O)CCCn1cnc2c(NC3CC3)ncnc21 observed="> 100 µM"
molecule=O=c1ccn(C/C=C/c2ccccc2)c(=S)n1C/C=C/c1ccccc1 observed="> 100 µM"
molecule="CCN1C(=O)/C(=c2\\sc3n(c2=O)C2C(NN=3)N(CC)C(=O)N2CC)c2ccccc21 (centres undefined)" observed="> 100 µM"
molecule=C[C@@]12CC[C@@H](O)C[C@@H]1CC[C@H]1[C@H]2CC[C@@]2(C)[C@H](c3ccc(=O)oc3)CC[C@@]12O observed="0.0932 µM"

Go through the list and state TGI for each entry.
1. Cc1cc(C)c(NS(=O)c2ccc(Cl)cc2)c(C)c1 (centres undefined)
2. C1CSCCSCCSCCSCCS1
3. CCCCC/C=C\C=C\CCCCCCCCC(=O)OC
4. CCOC(=O)c1sc2nc(SC)nc3c2c1NC(=O)CN3c1ccc(F)cc1
5. CC(C)CC(N)C(=O)NC(CNC(CCC(N)=O)C(=O)NC(CC(C)C)C(=O)NC(CC(C)C)C(=O)O)Cc1ccc2ccccc2c1 (centres undefined)
6. COc1cccc(C(=O)NNc2nc(Cl)nc(N3CCN(C(c4ccccc4)c4ccccc4)CC3)n2)c1

Reply:
1. > 100 µM
2. > 100 µM
3. > 100 µM
4. > 100 µM
5. > 10 µM
6. > 100 µM

---

tested on: NCI-H226 lung; experiment: NCI tumour cell line growth inhibition, 48 h
Give GI50 for every item shown.

Field: GI50. Fill in for each record below.
1. COc1ccc2nc3cc([N+](=O)[O-])ccc3c(NCCO)c2c1
2. CC[C@]12C=CCN3CC[C@@]4(c5ccc(OC)cc5N(C)[C@H]4[C@@](O)(C(=O)OC)[C@@H]1OC(=O)CCC(=O)O[C@H]1CC[C@H]4[C@@H]5CCC6=CC(=O)CC[C@@H]6[C@H]5CC[C@]14C)[C@@H]32
3. CCOC(=O)C1=C(C)NC2SC(=O)/C(=C\c3cccc(Cl)c3)N2C1c1ccccc1 (stereo not given)
4. Cn1cc(-c2csc(-c3ccccc3)n2)c2cccnc21
5. Cc1ccc(C2=NN(c3ccc(S(=O)(=O)NC(=O)NCc4ccccc4)cc3)C(c3ccc(N(C)C)cc3)C2)c(C)c1 (stereo not given)
6. C=C(C(=O)c1ccccc1)C(NC(C)(C)C)c1ccccc1 (stereo not given)
7. NC(=O)c1c[nH]c2ncnc(N)c12
8. COC(=O)CN1Cc2cc(C)cc(c2O)CN(CC(=O)OC)Cc2cc(C)cc(c2O)CN(CC(=O)OC)Cc2cc(C)cc(c2O)CN(CC(=O)OC)Cc2cc(C)cc(c2O)C1

Reply:
1: 3.67 µM; 2: 2.07 µM; 3: > 100 µM; 4: 16.6 µM; 5: 3.91 µM; 6: 1.63 µM; 7: 67.3 µM; 8: 11.1 µM

List the reported GI50 of each molecule below.
1. CC(C)c1cnc(-c2cc(Cl)ccc2F)cc1Nc1ccncc1C(=O)NC(CO)CO
2. CC(=O)[O-].CC(=O)[O-].O=C([CH-]C(=O)c1ccccc1)c1ccccc1.[Nd+3].[OH3+]
3. O=C(Cc1cc(O)ccc1O)NO

Reply:
1: 13.6 µM; 2: 13.8 µM; 3: 70 µM

Batch request: GI50 per item, same order as input.
1. CCOc1cc(Cl)c(C(C)NC(=O)c2cccc(OC)c2)cc1OCC (stereo not given)
2. O=C1/C(=C/c2ccc(Cl)cc2)CN(Cc2cn(CCCNc3ccnc4cc(Cl)ccc34)nn2)C/C1=C\c1ccc(Cl)cc1
3. CCN1C(=O)/C(=c2\sc3n(c2=O)C2C(NN=3)N(CC)C(=O)N2CC)c2ccccc21 (stereo not given)
4. Nc1nc2ccc(CNc3ccc(C(=O)NC(CC(=O)O)C(=O)O)cc3)cc2c(=O)[nH]1 (stereo not given)

Reply:
["37.4 µM", "1.92 µM", "0.736 µM", "> 65.3 µM"]
